# SYSTEM_UNDER_TEST: Fuc(a1-2)[GalNAc(a1-3)]Gal(b1-4)GlcNAc(b1-3)Gal(b1-4)GlcNAc(b1-3)Gal(b1-4)GlcNAc
# ASSAY_INFO: glycan array binding signal (z-score within array); higher = stronger binding
# MEASUREMENT_PARAMETERS: glycan notation: IUPAC condensed, linker removed
The entries come from a sample that favours the strongest signals as a whole.

{"BINDER": "Cohesin-marm-DC-ASGPR-CRD (protein) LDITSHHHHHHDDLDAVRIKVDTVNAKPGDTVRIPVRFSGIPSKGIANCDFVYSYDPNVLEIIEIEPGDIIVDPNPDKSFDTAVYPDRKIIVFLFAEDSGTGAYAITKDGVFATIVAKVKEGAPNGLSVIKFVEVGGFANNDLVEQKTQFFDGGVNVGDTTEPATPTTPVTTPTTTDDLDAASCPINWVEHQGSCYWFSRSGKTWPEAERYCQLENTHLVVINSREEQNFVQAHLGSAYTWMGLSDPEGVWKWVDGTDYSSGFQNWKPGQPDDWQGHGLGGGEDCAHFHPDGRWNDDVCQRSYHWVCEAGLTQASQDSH", "glycan array binding signal (z-score)": 2.99}

Attribution: the supplement of paper PMC8728848
